assay: Plasma concentration after intravenous infusion at a dose of 80 mg/kg measured after approximately 12 min; format: ADME, organism-based, Canis lupus familiaris; design: dose 80 mg/kg, route intravenous; details: dog, read-out: Activity
Assay Metric: concentration at 0.2 h (ng/mL)

Smiles Data: O=c1cc(NC2CCN(Cc3ccc4c(c3)OCO4)CC2)c2cc(Cl)ccc2o1
Assay Metric: concentration at 0.2 h
Value Measured: 19900

###

assay: Plasma concentration after intravenous infusion at a dose of 8 mg/kg/30 min; type: ADME, organism-based, Canis lupus familiaris; set-up: route intravenous; settings: dog, read-out: Activity

Smiles Data: O=c1cc(NC2CCN(Cc3ccc4c(c3)OCO4)CC2)c2cc(Cl)ccc2o1
concentration at 0.5 h, ng/mL: 3330
